biological target: Genome polyprotein (Hepatitis C virus genotype 1a (isolate H77)); test: Continuous Spectrophotometric Assay
Sequence (P27958 1027-1657 limits assumed): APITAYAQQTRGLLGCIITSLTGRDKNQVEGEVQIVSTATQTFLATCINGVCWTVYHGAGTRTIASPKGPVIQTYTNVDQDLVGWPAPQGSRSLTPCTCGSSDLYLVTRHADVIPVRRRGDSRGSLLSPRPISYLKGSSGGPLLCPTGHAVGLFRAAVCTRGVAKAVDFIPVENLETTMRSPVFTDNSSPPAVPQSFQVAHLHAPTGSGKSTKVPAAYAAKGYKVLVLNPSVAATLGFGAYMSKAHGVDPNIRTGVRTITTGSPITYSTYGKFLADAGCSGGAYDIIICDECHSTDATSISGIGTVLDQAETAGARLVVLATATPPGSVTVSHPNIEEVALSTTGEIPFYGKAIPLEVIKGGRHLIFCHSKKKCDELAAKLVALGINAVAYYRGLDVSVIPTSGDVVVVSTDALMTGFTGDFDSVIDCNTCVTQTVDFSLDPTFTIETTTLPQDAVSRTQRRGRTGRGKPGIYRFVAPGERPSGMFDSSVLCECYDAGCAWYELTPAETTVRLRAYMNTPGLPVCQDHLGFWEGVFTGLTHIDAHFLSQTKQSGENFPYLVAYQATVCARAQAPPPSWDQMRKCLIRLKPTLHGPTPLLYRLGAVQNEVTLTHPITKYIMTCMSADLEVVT
Quantity kind: Ki (µM)

INSERT INTO results (compound, system_name, unit_name, numeric_value) VALUES
  ('CCCC(NC(=O)[C@@H]1C[C@@H]2CN1C(=O)[C@H](C1CCCCC1)NC(=O)Cc1cccc(c1)OCCCN2S(=O)(=O)c1ccccc1)C(=O)C(=O)NCC(=O)N[C@H](C(=O)N(C)C)c1ccccc1 (some centres not stated)', 'Genome polyprotein (Hepatitis C virus genotype 1a (isolate H77))', 'µM', 0.036),
  ('CCCC(NC(=O)[C@@H]1C[C@@H]2CN1C(=O)[C@H](C1CCCCC1)NC(=O)Cc1cccc(c1)OCCCS2(=O)=O)C(=O)C(=O)NCC(=O)N[C@H](C(=O)N(C)C)c1ccccc1 (some centres not stated)', 'Genome polyprotein (Hepatitis C virus genotype 1a (isolate H77))', 'µM', 3.3);

* * *

biological target: Genome polyprotein (Hepatitis C virus genotype 1a (isolate H77)); assay: Continuous Spectrophotometric Assay; conditions: pH 6.5; 30 °C
pKi: −log10 of the molar value.
Quantity kind: pKi

INSERT INTO results (compound, numeric_value) VALUES
  ('CCC[C@H](NC(=O)[C@@H]1C[C@H]2CN1C(=O)[C@H](C(C)(C)C)NC(=O)Cc1cccc(c1)OCCCO2)C(=O)C(=O)NCC(=O)N[C@H](C(=O)N(C)C)c1ccccc1', 6.89),
  ('CCC[C@H](NC(=O)[C@@H]1C[C@@H]2CN1C(=O)[C@H](C(C)(C)C)NC(=O)Cc1cccc(c1)OCCCO2)C(=O)C(=O)NCC(=O)N[C@H](C(=O)N(C)C)c1ccccc1', 7.82),
  ('CCCC(NC(=O)[C@@H]1C[C@@H]2CN1C(=O)[C@H](C1CCCCC1)NC(=O)Cc1cccc(c1)OCCO2)C(=O)C(=O)NCC(=O)N[C@H](C(=O)N(C)C)c1ccccc1 (stereo not given in full)', 7.52),
  ('CCCC(NC(=O)[C@@H]1C[C@@H]2CN1C(=O)[C@H](C1CCCCC1)NC(=O)Cc1cccc(c1)OCCCCO2)C(=O)C(=O)NCC(=O)N[C@H](C(=O)N(C)C)c1ccccc1 (stereo not given in full)', 8.15),
  ('CCCC(NC(=O)[C@@H]1C[C@@H]2CN1C(=O)[C@H](C1CCCCC1)NC(=O)Cc1cccc(c1)OCCCS2)C(=O)C(=O)NCC(=O)N[C@H](C(=O)N(C)C)c1ccccc1 (stereo not given in full)', 8.00);
